The reader will find reported melting point values listed item by item below.

# compound, melting point
measured = [
    ("CCCCCCC(CCCCCC)N1C(=O)c2ccc3c4ccc5c6c(ccc(c7ccc(c2c37)C1=O)c64)C(=O)N(CCCNC(=O)CCCOc1cc(I)c(OC)cc1CC(C)N)C5=O (centres unmarked) [12h]", "169 to 171 °C"),
    ("COc1cc(CC(C)N)c(OCCCCCCCCCCC(=O)NCCCNS(=O)(=O)c2cccc3c(N(C)C)cccc23)cc1I (centres unmarked) [10c]", "171 to 173 °C"),
    ("COc1cc(CC(C)N)c(OCCCC(=O)NCCCNc2ccc([N+](=O)[O-])c3nonc23)cc1I (centres unmarked) [12b]", "158 to 160 °C"),
    ("COC(=O)c1c(C(=O)OCCCNC(=O)CCCOc2cc(I)c(OC)cc2CC(C)N)c2cc3ccccc3cc2c2cc3ccccc3cc12 (centres unmarked) [12g]", "150 to 152 °C"),
    ("CCN(CC)c1ccc2c(-c3ccccc3C(=O)NCCC(=O)NCCC(=O)NCCCOCCOCCOCCCNC(=O)CCCOc3cc(I)c(OC)cc3CC(C)N)c3ccc(=[N+](CC)CC)cc-3oc2c1 (centres unmarked) [12i]", "151 to 153 °C"),
]
